For each entry below, report its Mean Daily Release value.
- Protocol Text: In vitro dissolution: mean daily release from full-length-core rings over up to 90 days in three media
- Assay type: physicochemical
- Condition: 0.9% (w/v) saline; 9 × 54 mm ring, core 141 × 2 mm, 37 °C, N = 4
Expressed in μg per day, but write only the number.

Request the reported Mean Daily Release associated with CCC(=O)O[C@H]1CC[C@H]2[C@@H]3CCc4cc(O)ccc4[C@H]3CC[C@]12C
26

Reported Mean Daily Release for CC(=O)Oc1ccc2c(c1)CC[C@@H]1[C@@H]2CC[C@]2(C)[C@@H](O)CC[C@@H]12 [17β-oestradiol-3-acetate] : what is it?
350

Value lookup for Mean Daily Release; key = CC(=O)O[C@H]1CC[C@H]2[C@@H]3CCc4cc(O)ccc4[C@H]3CC[C@]12C
24

# Mean Daily Release lookup, item C[C@]12CC[C@@H]3c4ccc(O)cc4CC[C@H]3[C@@H]1CC[C@@H]2O
8
